test system: NCI-H82 cell; assay: Cell viability (Promega CellTiter-Glo) of NCI-H82 cell; format: cell-based; details: Homo sapiens; NCI-H82 cell, Table 1; read-out: IC50
Experimental readout: pIC50
For clarity, pIC50 is expressed as the negative log10 of concentration in mol/L.

The following compounds have reported results that may help.
[
  {
    "Compound": "Cc1ccc(C(=O)C[n+]2ccc(NCc3ccccc3)c(C)c2)cc1",
    "Test target": "NCI-H82 cell",
    "Result value": 6.49
  },
  {
    "Compound": "O=C1c2cc(C(F)(F)F)ccc2CCC1[n+]1ccc2c(ccn2Cc2ccccc2)c1 (centres unmarked)",
    "Test target": "NCI-H82 cell",
    "Result value": 6.96
  },
  {
    "Compound": "O=C(C[n+]1ccc(NCc2ccccc2)nc1)c1ccc(-c2ccccc2)cc1",
    "Test target": "NCI-H82 cell",
    "Result value": 5.96
  },
  {
    "Compound": "O=C1c2cnccc2CCC1[n+]1ccc(NCc2ccccc2)cc1 (centres unmarked)",
    "Test target": "NCI-H82 cell",
    "Result value": 5.40
  },
  {
    "Compound": "CC(=O)N(Cc1ccccc1)c1cc[n+](CC(=O)c2ccc(C)cc2)cc1",
    "Test target": "NCI-H82 cell",
    "Result value": 6.80
  }
]

Which pIC50 value is on record for O=C(C[n+]1ccc2c(ccn2Cc2ccccc2)c1)c1ccc(OC(F)(F)F)cc1 ?
6.04

Which pIC50 value is on record for O=C1c2ncccc2CCC1[n+]1ccc(NCc2ccccc2)cc1 (centres unmarked) ?
5.16

Which pIC50 value is on record for O=C(C[n+]1ccc2c(-c3ccccc3)n[nH]c2c1)c1cccc([N+](=O)[O-])c1 ?
5.20
